Test system: Plasmodium falciparum
assay_explanation: Growth inhibition (IC50) against Plasmodium falciparum wild-type TM4/8.2
Type: functional, organism-based
readout_type: pIC50
Give bare numbers, as −log10 of the molar value.

Param readout= pIC50; system= Plasmodium falciparum; entry= CC1(C)N=C(N)N=C(N)N1c1ccc(Cl)cc1 [CYCLOGUANIL] ; returns value.
7.40

###

tgt: Bifunctional dihydrofolate reductase-thymidylate synthase (Plasmodium falciparum K1) (UniProt P13922)
Sequence (P13922 whole entry, looked up): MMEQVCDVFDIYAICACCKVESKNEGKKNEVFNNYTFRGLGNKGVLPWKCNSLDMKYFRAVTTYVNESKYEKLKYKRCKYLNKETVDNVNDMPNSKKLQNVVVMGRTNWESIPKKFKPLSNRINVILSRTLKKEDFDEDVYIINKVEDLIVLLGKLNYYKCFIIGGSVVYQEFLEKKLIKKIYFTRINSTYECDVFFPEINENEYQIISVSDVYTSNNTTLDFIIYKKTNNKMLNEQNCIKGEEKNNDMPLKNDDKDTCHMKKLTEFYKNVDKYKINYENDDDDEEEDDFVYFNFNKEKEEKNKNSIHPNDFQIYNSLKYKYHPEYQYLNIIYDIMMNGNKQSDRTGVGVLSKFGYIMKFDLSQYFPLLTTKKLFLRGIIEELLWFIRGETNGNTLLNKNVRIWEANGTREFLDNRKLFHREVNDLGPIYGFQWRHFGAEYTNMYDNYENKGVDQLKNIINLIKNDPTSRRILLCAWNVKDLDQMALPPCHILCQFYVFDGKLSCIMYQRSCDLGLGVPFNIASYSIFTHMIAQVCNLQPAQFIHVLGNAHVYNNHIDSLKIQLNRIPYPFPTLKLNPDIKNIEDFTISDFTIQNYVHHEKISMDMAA
assay_explanation: Evaluated for activity of relative to Cycloguanil
readout_type: Relative activity
Give bare numbers.

- compound: "NC1=NCN(c2ccccc2)C(N)=N1"
  numeric_result: 220
- compound: "CC1N=C(N)N=C(N)N1c1ccc(Cl)cc1 (stereo unspecified)"
  numeric_result: 2.7
- compound: "CC(C)C1N=C(N)N=C(N)N1c1ccc(Cl)cc1 (stereo unspecified)"
  numeric_result: 40.3

Provide Relative activity values for the following items, in order.
1. NC1=NC(c2ccccc2)N(c2ccc(Cl)cc2)C(N)=N1 (stereo unspecified)
2. CC1N=C(N)N=C(N)N1c1ccc(Cl)c(Cl)c1 (stereo unspecified)
3. CC1(C)N=C(N)N=C(N)N1c1ccc(Cl)c(Cl)c1
4. CC1N=C(N)N=C(N)N1c1ccc(Br)cc1 (stereo unspecified)
5. Cc1ccc(N2C(N)=NC(N)=NC2C)cc1 (stereo unspecified)

1: 3; 2: 0.9; 3: 0.73; 4: 3.8; 5: 15

Okay, here is my list. What is Relative activity for each of these?
1. CC1(C)N=C(N)N=C(N)N1c1ccc(Cl)cc1
2. Cc1ccc(N2C(N)=NC(N)=NC2C(C)C)cc1 (stereo unspecified)
3. NC1=NC(c2ccccc2)N(c2ccc(Br)cc2)C(N)=N1 (stereo unspecified)

1
111
1.9

Your task in this section: give Relative activity for each listed record.
1. CCCCC1N=C(N)N=C(N)N1c1ccc(Cl)cc1 (stereo unspecified)
2. CCCC1N=C(N)N=C(N)N1c1ccc(Cl)cc1 (stereo unspecified)
3. CCC1N=C(N)N=C(N)N1c1ccc(Cl)cc1 (stereo unspecified)
4. NC1=NCN(c2ccc(Cl)cc2)C(N)=N1

1: 2.5; 2: 3.1; 3: 2.4; 4: 16

###

tgt: Bifunctional dihydrofolate reductase-thymidylate synthase (Plasmodium falciparum K1) (UniProt P13922)
assay_explanation: Evaluated for activity of compound relative to Cycloguanil
I'd be grateful if you could share measured Relative activity for these entries.
Answers are plain numbers.

Sample records with Relative activity:
- molecule: "CC1N=C(N)N=C(N)N1c1ccc(Br)cc1 (stereo unspecified)"
  numeric_result: 0.15
- molecule: "CC(C)C1N=C(N)N=C(N)N1c1ccc(Cl)cc1 (stereo unspecified)"
  numeric_result: 1.2
- molecule: "CCCCC1N=C(N)N=C(N)N1c1ccc(Cl)cc1 (stereo unspecified)"
  numeric_result: 0.1
- molecule: "CCCC1N=C(N)N=C(N)N1c1ccc(Br)cc1 (stereo unspecified)"
  numeric_result: 0.1
- molecule: "CC1(C)N=C(N)N=C(N)N1c1ccc(Cl)c(Cl)c1"
  numeric_result: 0.1

Continue with the next molecule.
Field request: Relative activity | item: CCCC1N=C(N)N=C(N)N1c1ccc(C)cc1 (stereo unspecified)
0.14

###

tgt: Bifunctional dihydrofolate reductase-thymidylate synthase (Plasmodium falciparum K1) (UniProt P13922)
assay_explanation: Evaluated for activity of compound relative to Cycloguanil
readout_type: Relative activity
One number for each entry.

Known Relative activity results, listed for orientation:
- compound: "Cc1ccc(N2C(N)=NC(N)=NC2C(C)C)cc1 (stereo not drawn)"
  numeric_result: 1.11
- compound: "NC1=NC(c2ccccc2)N(c2cccc(Cl)c2)C(N)=N1 (stereo not drawn)"
  numeric_result: 0.008
- compound: "CC1(C)N=C(N)N=C(N)N1c1ccc(F)cc1"
  numeric_result: 1.2
- compound: "CC1(C)N=C(N)N=C(N)N1c1ccc(Br)cc1"
  numeric_result: 1.5
- compound: "CCC1N=C(N)N=C(N)N1c1ccc(Br)cc1 (stereo not drawn)"
  numeric_result: 0.15

Take each entry in turn and give its Relative activity.
1. CC(C)C1N=C(N)N=C(N)N1c1ccc(Br)cc1 (stereo not drawn)
2. CC(C)(C)C1N=C(N)N=C(N)N1c1ccc(Cl)cc1 (stereo not drawn)
3. NC1=NCN(c2ccccc2)C(N)=N1

0.9
63
0.4

###

tgt: Bifunctional dihydrofolate reductase-thymidylate synthase (Plasmodium falciparum K1)
assay_explanation: Selectivity ratio of growth inhibition against Plasmodium falciparum TM4/8.2(wild-type) and T9/94(mutant)
Format: functional
Mark true only when IC50 ratio stays strictly below 2. Values equal to the cut-off are false.

Some solved entries appear below for comparison.
- molecule: "Cc1ccc(N2C(N)=NC(N)=NC2C(C)C)cc1 (configuration not stated)"
  class_assignment: "true"
- molecule: "NC1=NCN(c2ccccc2)C(N)=N1"
  class_assignment: "true"
- molecule: "CC1N=C(N)N=C(N)N1c1ccc(Cl)cc1 (configuration not stated)"
  class_assignment: "true"
- molecule: "NC1=NC(c2ccccc2)N(c2ccc(Br)cc2)C(N)=N1 (configuration not stated)"
  class_assignment: "false"

Decide: IC50 ratio of CCC1N=C(N)N=C(N)N1c1ccc(Cl)cc1 (configuration not stated) strictly below 2?
false

Is 2 strictly greater than the molecule's reported IC50 ratio? molecule: CC1(C)N=C(N)N=C(N)N1c1ccc(F)cc1
false

Strictly below 2: is that where IC50 ratio of CC1N=C(N)N=C(N)N1c1ccc(Br)cc1 (configuration not stated) sits?
false

###

tgt: Bifunctional dihydrofolate reductase-thymidylate synthase (Plasmodium falciparum K1, UniProt P13922, A16V/S108T)
Sequence (P13922 whole entry, looked up, stated change not applied): as the sequence (P13922 whole entry, looked up) above
assay_explanation: Evaluated for inhibition constant (Ki mut) against A16V+S108T Mutant dihydrofolate reductase of Plasmodium falciparum
readout_type: pKi
Numbers only, as −log10 of the molar value.

- compound: "NC1=NC(c2ccccc2)N(c2ccc(Br)cc2)C(N)=N1 (stereo not drawn)"
  numeric_result: 7.05

Batch lookup, pKi per entry.
1. CCCC1N=C(N)N=C(N)N1c1ccc(Cl)cc1 (stereo not drawn)
2. NC1=NC(c2ccccc2)N(c2ccc(Cl)cc2)C(N)=N1 (stereo not drawn)
3. NC1=NC(c2ccccc2)N(c2cccc(Cl)c2)C(N)=N1 (stereo not drawn)
4. CCCC1N=C(N)N=C(N)N1c1ccc(Br)cc1 (stereo not drawn)
5. NC1=NCN(c2ccc(Cl)cc2)C(N)=N1
6. Cc1ccc(N2C(N)=NC(N)=NC2c2ccccc2)cc1 (stereo not drawn)
7. CCCCC1N=C(N)N=C(N)N1c1ccc(Cl)cc1 (stereo not drawn)

[6.97, 7.31, 8.00, 6.90, 6.19, 6.77, 6.78]

###

tgt: Bifunctional dihydrofolate reductase-thymidylate synthase (Plasmodium falciparum K1, UniProt P13922, A16V/S108T)
assay_explanation: Inhibition constant (Ki mut) against A16V+S108T Mutant DHFRs of Plasmodium falciparum
readout_type: pKi
Numbers only, as −log10 of the molar value.

- molecule: "CC1(C)N=C(N)N=C(N)N1c1ccc(F)cc1"
  readout_type: "pKi"
  numeric_result: 5.79

Dear reader, for each entry below, please note its pKi.
1. CCC1N=C(N)N=C(N)N1c1ccc(Br)cc1 (configuration not stated)
2. Cc1ccc(N2C(N)=NC(N)=NC2C(C)C)cc1 (configuration not stated)

1. 6.69
2. 5.84

Dear reader, for each entry below, please note its pKi.
1. Cc1ccc(N2C(N)=NC(N)=NC2C)cc1 (configuration not stated)
2. CC1N=C(N)N=C(N)N1c1ccc(Br)cc1 (configuration not stated)
3. CC1(C)N=C(N)N=C(N)N1c1ccccc1
4. NC1=NCN(c2ccccc2)C(N)=N1

[6.73, 6.69, 5.86, 6.23]

###

tgt: Bifunctional dihydrofolate reductase-thymidylate synthase (Plasmodium falciparum K1)
assay_explanation: Evaluated for activity of compound relative to Cycloguanil
readout_type: Relative activity
Answers are plain numbers.

Answered cases to consult:
- compound: "CC1(C)N=C(N)N=C(N)N1c1ccccc1"
  Relative activity: 1.05
- compound: "CC1(C)N=C(N)N=C(N)N1c1ccc(Cl)cc1"
  Relative activity: 1
- compound: "NC1=NCN(c2ccc(Cl)cc2)C(N)=N1"
  Relative activity: 0.5
- compound: "Cc1ccc(N2C(N)=NC(N)=NC2C)cc1 (stereo not drawn)"
  Relative activity: 0.14
- compound: "CC1N=C(N)N=C(N)N1c1ccc(Cl)c(Cl)c1 (stereo not drawn)"
  Relative activity: 0.014

Dear colleague, could you please provide Relative activity for the compounds listed below?
1. CCCC1N=C(N)N=C(N)N1c1ccc(Cl)cc1 (stereo not drawn)
2. CC1N=C(N)N=C(N)N1c1ccc(Cl)cc1 (stereo not drawn)
3. CCC1N=C(N)N=C(N)N1c1ccc(C)cc1 (stereo not drawn)
4. NC1=NC(c2ccccc2)N(c2ccc(Cl)cc2)C(N)=N1 (stereo not drawn)

1: 0.08; 2: 0.09; 3: 0.1; 4: 0.04

I have 2 compounds here; please give me Relative activity for each one.
1. NC1=NCN(c2ccc(F)cc2)C(N)=N1
2. Cc1ccc(N2C(N)=NC(N)=NC2c2ccccc2)cc1 (stereo not drawn)

0.4
0.13

Record Relative activity per entry; entries follow.
1. NC1=NC(c2ccccc2)N(c2ccc(Br)cc2)C(N)=N1 (stereo not drawn)
2. CCC1N=C(N)N=C(N)N1c1ccc(Cl)cc1 (stereo not drawn)

0.07
0.14

This collection of values is drawn from ChEMBL document CHEMBL1133696.
